Data provenance is the nanobody polyreactivity screen of Harvey et al. (2022).

Assay comment: yeast display, Sf9 membrane polyspecificity reagent, FACS + sequencing; frameworks hold sequencing errors
Assay metric: polyreactivity (PSR sort gate)

q: // polyreactivity (PSR sort gate) lookup, key: QVQLVESGRGLVQAGGSLRLSCAASGSTFQYYAMGWYRPATGKERELDAAINSRGTSTFYADSVKGRFTISRDNAKNTVYLQMNSLKPEDTAVDYCNARGPRYGNRYRNDYWGQGTQGTVSS
a: high polyreactivity

q: // polyreactivity (PSR sort gate) lookup, key: QVQLVESGGGLVQAGGSLRLSCAATGLIFGWYAMGWYRQAPGKERELVAAISYSGGRTYYADSVKGRFTISRDNAKNTVYLQMNSLKPEDSAVYYCAAIVLQLRGRGYEYWGQGTQVTVSS
a: high polyreactivity

q: // polyreactivity (PSR sort gate) lookup, key: QVHLVESGGGLVQAGGSLRLTCAASGFTFSDNAMGWYRQAPGKERELVAAISRSGGRTYYADSVKGRFTISRDNAKKTVYLQMNSLKPEDTAVYYCAAYQYGMDYWGQGTQVTVSS
a: high polyreactivity
